Molecular target: KV3.4 channels (Homo sapiens, UniProt Q03721)
Construct: expressed in transfected cells; host or cells: CHO cells, transient transfection with Lipofectamine 2000; cDNAs provided by Professor Goldstein, University of Chicago
Sequence (Q03721 whole entry): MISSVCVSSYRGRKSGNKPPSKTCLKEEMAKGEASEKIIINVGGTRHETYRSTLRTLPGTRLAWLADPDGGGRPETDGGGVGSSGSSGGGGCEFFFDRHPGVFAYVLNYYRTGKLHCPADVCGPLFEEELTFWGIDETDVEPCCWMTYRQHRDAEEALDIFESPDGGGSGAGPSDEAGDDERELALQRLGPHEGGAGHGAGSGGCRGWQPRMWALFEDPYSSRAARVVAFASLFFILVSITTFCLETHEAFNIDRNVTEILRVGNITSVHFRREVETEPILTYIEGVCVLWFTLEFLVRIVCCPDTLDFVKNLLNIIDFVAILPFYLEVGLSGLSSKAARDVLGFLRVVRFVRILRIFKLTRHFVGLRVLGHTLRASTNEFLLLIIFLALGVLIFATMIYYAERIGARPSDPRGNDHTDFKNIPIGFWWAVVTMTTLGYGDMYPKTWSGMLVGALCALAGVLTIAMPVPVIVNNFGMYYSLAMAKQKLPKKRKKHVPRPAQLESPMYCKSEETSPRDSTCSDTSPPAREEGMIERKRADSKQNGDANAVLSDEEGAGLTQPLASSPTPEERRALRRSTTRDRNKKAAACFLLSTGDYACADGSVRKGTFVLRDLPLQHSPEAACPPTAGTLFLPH
Sequence (Q9Y6H6 whole entry partner): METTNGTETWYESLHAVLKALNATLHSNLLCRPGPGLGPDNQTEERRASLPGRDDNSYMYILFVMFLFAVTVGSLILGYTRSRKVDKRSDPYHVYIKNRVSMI
Assay: Whole-cell patch clamp of Kv3.4 currents in CHO cells transiently transfected with Kv3.4/MiRP2
Format: cell-based
Conditions: peptide 100 nM, acute application; CHO cells transfected with Kv3.4/MiRP2; whole-cell patch clamp
QUANTITY KIND: ability to inhibit Kv3.4 currents (in words)

// worked examples, ability to inhibit Kv3.4 currents (in words) included
H-NAYKWPNI-OH [BDS-I[31-38], overlapping 8-amino-acid fragment of BDS-I] | did not
H-GYGYTSNA-OH [BDS-I[25-32], overlapping 8-amino-acid fragment of BDS-I] | did not
H-NIAAYPH-OH [BDS-I[37-43], C-terminal 7-amino-acid fragment of BDS-I] | did not
H-GDLWILRG-OH [BDS-I[13-20], overlapping 8-amino-acid fragment of BDS-I] | did not
H-RGTAPGGY-OH [BDS-I[19-26], overlapping 8-amino-acid fragment of BDS-I] | did not

Turning now to a further substance:
Which value of ability to inhibit Kv3.4 currents (in words) has been reported for H-SGKPGRGD-OH [BDS-I[7-14], overlapping 8-amino-acid fragment of BDS-I] in the records? did not
